Target: purified human HDAC6 (Homo sapiens)
Construct: purchased BPS Bioscience 5006
Test: HDAC6 Enzyme Assay
Type: biochemical
Settings: HDAC6 inhibition at a compound concentration of 0.412 μM; read-out: Percent Inhibition at 0.412 μM
Label rule, in plain words: inhibition at 0.412 µM of 70% and up is Y, under 70% is N.

MOLECULE: O=C(NC1CC1)c1cccc(-c2ccc3c(c2)CC(C(=O)NO)CC3)c1 (stereo not shown)
ASSIGNED CATEGORY: Y

MOLECULE: O=C(NO)C1CCc2cc(Oc3cccc(Cl)c3)ccc2C1 (stereo not shown)
ASSIGNED CATEGORY: N

MOLECULE: Cc1nnc(-c2cccc(-c3ccc4c(c3)CC(C(=O)NO)CC4)c2)o1 (stereo not shown)
ASSIGNED CATEGORY: Y

MOLECULE: O=C(NC1CC1)c1cccc(Oc2ccc3c(c2)CC(C(=O)NO)CC3)c1 (stereo not shown)
ASSIGNED CATEGORY: N

MOLECULE: O=C(NO)C1CCc2ccc(NS(=O)(=O)c3ccccc3)cc2C1 (stereo not shown)
ASSIGNED CATEGORY: N

MOLECULE: O=C(NO)C1CCc2ccc(-c3ccccc3Cl)cc2C1 (stereo not shown)
ASSIGNED CATEGORY: Y

MOLECULE: CC(C)(C)NC(=O)c1ccc2c(c1)CC(C(=O)NO)CC2 (stereo not shown)
ASSIGNED CATEGORY: Y

MOLECULE: CC(C)Cc1ccc(-c2ccc3c(c2)CC(C(=O)NO)CC3)cc1 (stereo not shown)
ASSIGNED CATEGORY: N

MOLECULE: O=C(NO)C1CCc2ccc(-c3ccncc3)cc2C1 (stereo not shown)
ASSIGNED CATEGORY: N

MOLECULE: CC(C)(C#N)c1ccc(-c2ccc3c(c2)CC(C(=O)NO)CC3)cc1 (stereo not shown)
ASSIGNED CATEGORY: N

MOLECULE: O=C(NO)C1CCc2ccc(-c3cccc([N+](=O)[O-])c3)cc2C1 (stereo not shown)
ASSIGNED CATEGORY: Y

MOLECULE: CN(C)c1ccc(-c2ccc3c(c2)CC(C(=O)NO)CC3)cc1 (stereo not shown)
ASSIGNED CATEGORY: N

MOLECULE: COc1ccccc1Nc1ccc2c(c1)CCC(C(=O)NO)C2 (stereo not shown)
ASSIGNED CATEGORY: N

MOLECULE: CCOc1cccc(-c2ccc3c(c2)CC(C(=O)NO)CC3)c1 (stereo not shown)
ASSIGNED CATEGORY: Y

MOLECULE: CN(C)C(=O)c1cc(-c2ccc3c(c2)CC(C(=O)NO)CC3)ccc1Cl (stereo not shown)
ASSIGNED CATEGORY: Y

MOLECULE: O=C(NO)C1CCc2ccc(-c3ccc(Cl)cc3)cc2C1 (stereo not shown)
ASSIGNED CATEGORY: Y

MOLECULE: O=C1CCc2c(Oc3ccc4c(c3)C[C@@H](C(=O)NO)CC4)ccnc2N1
ASSIGNED CATEGORY: Y

MOLECULE: O=C(NO)C1CCc2cc(Nc3ccc(Cl)cc3)ccc2C1 (stereo not shown)
ASSIGNED CATEGORY: N

MOLECULE: CC(=O)Nc1cccc(-c2ccc3c(c2)CC(C(=O)NO)CC3)c1 (stereo not shown)
ASSIGNED CATEGORY: Y

----------
Target: purified human HDAC6 (Homo sapiens, UniProt Q9UBN7)
Construct: purchased BPS Bioscience 5006
Sequence (Q9UBN7 whole entry): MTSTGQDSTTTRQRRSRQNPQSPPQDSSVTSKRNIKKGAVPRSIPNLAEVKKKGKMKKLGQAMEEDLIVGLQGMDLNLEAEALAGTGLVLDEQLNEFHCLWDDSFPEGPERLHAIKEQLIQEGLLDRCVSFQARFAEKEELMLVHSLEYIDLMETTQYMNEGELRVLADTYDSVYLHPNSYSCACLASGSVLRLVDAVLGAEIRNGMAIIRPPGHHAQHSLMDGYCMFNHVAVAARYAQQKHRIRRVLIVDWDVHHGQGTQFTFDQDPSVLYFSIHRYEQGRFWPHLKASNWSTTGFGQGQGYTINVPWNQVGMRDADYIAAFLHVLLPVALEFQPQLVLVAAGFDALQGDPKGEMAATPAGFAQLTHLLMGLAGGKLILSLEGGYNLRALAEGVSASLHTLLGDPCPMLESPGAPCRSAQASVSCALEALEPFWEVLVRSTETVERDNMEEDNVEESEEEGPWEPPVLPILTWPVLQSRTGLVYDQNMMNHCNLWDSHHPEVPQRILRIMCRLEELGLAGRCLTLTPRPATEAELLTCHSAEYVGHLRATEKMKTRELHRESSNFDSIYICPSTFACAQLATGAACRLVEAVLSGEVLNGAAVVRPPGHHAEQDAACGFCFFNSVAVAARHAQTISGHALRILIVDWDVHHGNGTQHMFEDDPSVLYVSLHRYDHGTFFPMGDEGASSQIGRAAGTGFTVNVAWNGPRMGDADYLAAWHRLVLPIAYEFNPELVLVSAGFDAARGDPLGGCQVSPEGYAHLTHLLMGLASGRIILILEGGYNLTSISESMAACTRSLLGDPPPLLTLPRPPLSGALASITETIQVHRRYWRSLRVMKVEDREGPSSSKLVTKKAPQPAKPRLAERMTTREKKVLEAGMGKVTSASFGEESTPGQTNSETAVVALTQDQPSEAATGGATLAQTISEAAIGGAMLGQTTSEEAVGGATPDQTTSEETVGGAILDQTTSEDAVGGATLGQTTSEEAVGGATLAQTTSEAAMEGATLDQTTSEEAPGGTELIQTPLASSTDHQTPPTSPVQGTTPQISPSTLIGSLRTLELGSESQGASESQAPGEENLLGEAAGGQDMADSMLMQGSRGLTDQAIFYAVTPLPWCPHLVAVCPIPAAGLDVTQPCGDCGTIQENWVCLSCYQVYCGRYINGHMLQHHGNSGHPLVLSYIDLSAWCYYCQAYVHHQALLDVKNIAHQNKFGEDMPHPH
Experiment: HDAC6 Enzyme Assay
Assay type: biochemical
Conditions: HDAC6 inhibition at a compound concentration of 0.412 μM; read-out: Percent Inhibition at 0.412 μM
Label rule, in plain words: inhibition at 0.412 µM of 70% and up is true (1), under 70% is false (0).

COMPOUND: Cc1ccc(C)c(-c2ccc3c(c2)CC(C(=O)NO)CC3)c1 (stereo not drawn) [Compound I-111]
ASSIGNED CATEGORY: true (1)
--
COMPOUND: O=C(Nc1cc(Oc2ccc3c(c2)C[C@@H](C(=O)NO)CC3)ccn1)C1CC1 [Compound I-2]
ASSIGNED CATEGORY: true (1)
--
COMPOUND: O=C(NO)C1CCc2ccc(C#Cc3ccccc3)cc2C1 (stereo not drawn) [Compound I-34]
ASSIGNED CATEGORY: false (0)
--
COMPOUND: COc1cccc(Nc2ccc3c(c2)CCC(C(=O)NO)C3)c1 (stereo not drawn) [Compound I-79]
ASSIGNED CATEGORY: false (0)
--
COMPOUND: O=C(NO)C1CCc2ccc(-c3cccc(-c4ccccc4)c3)cc2C1 (stereo not drawn) [Compound I-110]
ASSIGNED CATEGORY: true (1)

----------
Biological target: purified human HDAC6 (Homo sapiens)
Construct: purchased BPS Bioscience 5006
Assay: HDAC6 Enzyme Assay
Type: biochemical
Conditions: HDAC6 inhibition at a compound concentration of 0.412 μM; read-out: Percent Inhibition at 0.412 μM
Protocol: To measure the inhibition of HDAC6 activity, purified human HDAC6 (BPS Bioscience; Cat. No. 5006) is incubated with substrate Ac-Arg-Gly-Lys(Ac)-AMC peptide (Bachem Biosciences; Cat. No. I-1925) for 1 hour at 30° C. in the presence of test compounds or vehicle DMSO control. […] Concentration response curves are generated by calculating the fluorescence increase in test compound-treated samples relative to DMSO-treated controls, and enzyme inhibition (IC50) values are determined from those curves.
Each record here notes measured inhibition at 0.412 µM.
METRIC NAME: inhibition at 0.412 µM

COMPOUND: O=C(NO)C1CCc2ccc(Nc3ccccc3)cc2C1 (centres unmarked)
METRIC NAME: inhibition at 0.412 µM
REPORTED MEASUREMENT: 70%
//
COMPOUND: O=C(NO)C1CCc2ccc(Oc3ccc(Cl)cc3)cc2C1 (centres unmarked)
METRIC NAME: inhibition at 0.412 µM
REPORTED MEASUREMENT: 62%
//
COMPOUND: COc1ccc2c(c1)CCC(C(=O)NO)C2 (centres unmarked)
METRIC NAME: inhibition at 0.412 µM
REPORTED MEASUREMENT: 32%
//
COMPOUND: CC(=O)Nc1cccc(-c2ccc3c(c2)CCC(C(=O)NO)C3)c1 (centres unmarked)
METRIC NAME: inhibition at 0.412 µM
REPORTED MEASUREMENT: 85%
//
COMPOUND: O=C(NO)C1CCc2ccc(Oc3cccc(Cl)c3)cc2C1 (centres unmarked)
METRIC NAME: inhibition at 0.412 µM
REPORTED MEASUREMENT: 74%
//
COMPOUND: O=C(NO)C1CCc2cc(Oc3ccccc3)ccc2C1 (centres unmarked)
METRIC NAME: inhibition at 0.412 µM
REPORTED MEASUREMENT: 27%
//
COMPOUND: CC(C)(C)OC(=O)Nc1cccc(Oc2ccc3c(c2)CC(C(=O)NO)CC3)c1 (centres unmarked)
METRIC NAME: inhibition at 0.412 µM
REPORTED MEASUREMENT: 83%
//
COMPOUND: O=C(NO)C1CCc2ccc(-c3ccc(S(=O)(=O)N4CCOCC4)cc3)cc2C1 (centres unmarked)
METRIC NAME: inhibition at 0.412 µM
REPORTED MEASUREMENT: 74%
//
COMPOUND: O=C(NO)C1CCc2cc(Oc3ccnc(NC(=O)C4CC4)c3)ccc2C1 (centres unmarked)
METRIC NAME: inhibition at 0.412 µM
REPORTED MEASUREMENT: 74%
//
COMPOUND: O=C1CCc2c(Oc3cc4c(cc3F)CCC(C(=O)NO)C4)ccnc2N1 (centres unmarked)
METRIC NAME: inhibition at 0.412 µM
REPORTED MEASUREMENT: 79%
//
COMPOUND: Cc1ccc(-c2ccc3c(c2)CC(C(=O)NO)CC3)c2ccccc12 (centres unmarked)
METRIC NAME: inhibition at 0.412 µM
REPORTED MEASUREMENT: 78%
//
COMPOUND: O=C(NO)C1CCc2ccc(-c3ccc4nonc4c3)cc2C1 (centres unmarked)
METRIC NAME: inhibition at 0.412 µM
REPORTED MEASUREMENT: 77%
//
COMPOUND: O=C(NO)C1CCc2cc(NC(=O)C3CC3)ccc2C1 (centres unmarked)
METRIC NAME: inhibition at 0.412 µM
REPORTED MEASUREMENT: 68%
//
COMPOUND: O=C(NO)C1CCc2ccc(Oc3ccncc3)cc2C1 (centres unmarked)
METRIC NAME: inhibition at 0.412 µM
REPORTED MEASUREMENT: 61%
//
COMPOUND: O=C(NO)C1CCc2ccc(-c3ccc(N4CCCC4)nc3)cc2C1 (centres unmarked)
METRIC NAME: inhibition at 0.412 µM
REPORTED MEASUREMENT: 81%
//
COMPOUND: O=C(NO)C1CCc2ccc(OCc3ccncc3)cc2C1 (centres unmarked)
METRIC NAME: inhibition at 0.412 µM
REPORTED MEASUREMENT: 58%
//
COMPOUND: CC1(C(=O)NO)CCc2ccc(Oc3ccc(Cl)cc3)cc2C1 (centres unmarked)
METRIC NAME: inhibition at 0.412 µM
REPORTED MEASUREMENT: 16%
//
COMPOUND: O=C(NO)C1CCc2ccc(-c3cccnc3)cc2C1 (centres unmarked)
METRIC NAME: inhibition at 0.412 µM
REPORTED MEASUREMENT: 75%
//
COMPOUND: CC(C)(C)OC(=O)Nc1ccc(Oc2ccc3c(c2)CC(C(=O)NO)CC3)cc1 (centres unmarked)
METRIC NAME: inhibition at 0.412 µM
REPORTED MEASUREMENT: 74%
//
COMPOUND: O=C(Nc1ccccc1)Nc1ccc2c(c1)CC(C(=O)NO)CC2 (centres unmarked)
METRIC NAME: inhibition at 0.412 µM
REPORTED MEASUREMENT: 86%
//
COMPOUND: CC(=O)Nc1cccc(Oc2ccc3c(c2)CC(C(=O)NO)CC3)c1 (centres unmarked)
METRIC NAME: inhibition at 0.412 µM
REPORTED MEASUREMENT: 80%
//
COMPOUND: O=C(NO)C1CCc2ccc(-c3c[nH]c4ccccc34)cc2C1 (centres unmarked)
METRIC NAME: inhibition at 0.412 µM
REPORTED MEASUREMENT: 83%
//
COMPOUND: O=C(NO)C1CCc2ccc(-c3ccc4[nH]ccc4c3)cc2C1 (centres unmarked)
METRIC NAME: inhibition at 0.412 µM
REPORTED MEASUREMENT: 77%
//
COMPOUND: CN(C)c1ccc2c(c1)CC(C(=O)NO)CC2 (centres unmarked)
METRIC NAME: inhibition at 0.412 µM
REPORTED MEASUREMENT: 46%
//
COMPOUND: CCCc1ccc(-c2ccc3c(c2)CC(C(=O)NO)CC3)cc1 (centres unmarked)
METRIC NAME: inhibition at 0.412 µM
REPORTED MEASUREMENT: 62%
//
COMPOUND: CN(C)Cc1cc(C(=O)Nc2ccc3c(c2)CC(C(=O)NO)CC3)cc(C(F)(F)F)c1 (centres unmarked)
METRIC NAME: inhibition at 0.412 µM
REPORTED MEASUREMENT: 55%
//
COMPOUND: O=C(NO)C1CCc2ccc(-c3ccc(C(F)(F)F)cc3)cc2C1 (centres unmarked)
METRIC NAME: inhibition at 0.412 µM
REPORTED MEASUREMENT: 58%
//
COMPOUND: COc1ccc(-c2ccc3c(c2)CC(C(=O)NO)CC3)cc1F (centres unmarked)
METRIC NAME: inhibition at 0.412 µM
REPORTED MEASUREMENT: 82%
//
COMPOUND: O=C(NO)C1CCc2ccc(-c3ccc(C(=O)N4CCCC4)c(F)c3)cc2C1 (centres unmarked)
METRIC NAME: inhibition at 0.412 µM
REPORTED MEASUREMENT: 77%
//
COMPOUND: O=C(NO)C1CCc2cc(-c3ccc(Cl)cc3)ccc2C1 (centres unmarked)
METRIC NAME: inhibition at 0.412 µM
REPORTED MEASUREMENT: 68%
//
COMPOUND: CN(C)CCOc1cccc(-c2ccc3c(c2)CC(C(=O)NO)CC3)c1 (centres unmarked)
METRIC NAME: inhibition at 0.412 µM
REPORTED MEASUREMENT: 87%
//
COMPOUND: O=C(NO)C1CCc2ccc(-c3ccc4[nH]cnc4c3)cc2C1 (centres unmarked)
METRIC NAME: inhibition at 0.412 µM
REPORTED MEASUREMENT: 89%
//
COMPOUND: Cc1cc(F)ccc1-c1ccc2c(c1)CC(C(=O)NO)CC2 (centres unmarked)
METRIC NAME: inhibition at 0.412 µM
REPORTED MEASUREMENT: 76%
//
COMPOUND: COc1ccccc1-c1ccc2c(c1)CC(C(=O)NO)CC2 (centres unmarked)
METRIC NAME: inhibition at 0.412 µM
REPORTED MEASUREMENT: 76%
//
COMPOUND: COc1ccc2c(c1)CC(C)(C(=O)NO)CC2 (centres unmarked)
METRIC NAME: inhibition at 0.412 µM
REPORTED MEASUREMENT: 0%
//
COMPOUND: O=C(NO)C1CCc2ccc(OCc3ccccc3)cc2C1 (centres unmarked)
METRIC NAME: inhibition at 0.412 µM
REPORTED MEASUREMENT: 53%
//
COMPOUND: O=C(NO)C1CCc2cccc(Oc3ccnc(NC(=O)C4CC4)c3)c2C1 (centres unmarked)
METRIC NAME: inhibition at 0.412 µM
REPORTED MEASUREMENT: 13%
//
COMPOUND: CC1(C(=O)Nc2ccc3c(c2)CC(C(=O)NO)CC3)CCNCC1 (centres unmarked)
METRIC NAME: inhibition at 0.412 µM
REPORTED MEASUREMENT: 54%
